# subject.of.test: COMT enzyme (Homo sapiens)
# Construct: COMT (μM); other: at 200 nM; other: at 50 nM; The reaction system contains 1U COMT enzyme, test article, 4 μM Esculetin, 0.6 mM AdoMet, 50 mM K3PO4, and 10 mM MgCl2
# Sequence (P21964 whole entry): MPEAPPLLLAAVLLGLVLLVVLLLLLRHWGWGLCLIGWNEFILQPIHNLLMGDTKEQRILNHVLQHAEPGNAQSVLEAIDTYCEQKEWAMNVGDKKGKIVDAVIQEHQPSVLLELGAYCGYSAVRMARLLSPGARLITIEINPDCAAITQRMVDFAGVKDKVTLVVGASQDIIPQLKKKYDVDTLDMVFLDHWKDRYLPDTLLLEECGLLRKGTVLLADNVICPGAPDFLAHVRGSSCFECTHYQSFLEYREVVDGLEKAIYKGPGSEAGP
# procedure.summary: COMT inhibition assay (reaction kinetic model, esculetin fluorescence)
# Format: biochemical
# condition.parameters: read-out: COMT inhibition at 200 nM

{"columns": ["compound", "inhibition at 0.2 µM (%)"],
 "data": [
  ["N#C/C(=C(/O)c1cc(O)c(O)c([N+](=O)[O-])c1)c1ccncn1", 74],
  ["N#C/C(=C(/O)c1cc(O)c(O)c([N+](=O)[O-])c1)c1nccs1", 24],
  ["N#C/C(=C\\c1cc(O)c(O)c([N+](=O)[O-])c1)C(=O)N1CCCCC1", 71],
  ["N#C/C(=C(/O)c1cc(O)c(O)c([N+](=O)[O-])c1)c1ccccn1", 80],
  ["N#C/C(=C\\c1cc(O)c(O)c([N+](=O)[O-])c1)c1ccncn1", 74],
  ["N#C/C(C(=O)N1CCCCC1)=C(/O)c1cc(O)c(O)c([N+](=O)[O-])c1", 26],
  ["N#CC(=Cc1cc(O)c(O)c([N+](=O)[O-])c1)c1ccccn1 (stereo in doubt)", 70]
]}
